test: Clearance in mouse hepatocytes measured per million of cells; assay type: ADME, cell-based, Hepatocyte; settings: read-out: CLH
quantity-name: hepatocyte CLint (µL/min/1e6 cells)

{"columns": ["smi", "val"],
 "data": [
  ["O=C(N[C@@H](Cc1coc2ccccc12)B(O)O)[C@H]1C[C@@H]2CC[C@H]1O2", 15.9],
  ["O=C(N[C@@H](Cc1coc2ccccc12)B(O)O)[C@@H]1C[C@H]2CC[C@@H]1O2", 15],
  ["O=C(N[C@@H](Cc1coc2ccccc12)B(O)O)[C@@H]1CCCO1", 99.7],
  ["O=C(N[C@@H](Cc1coc2ccccc12)B(O)O)[C@@H]1CCOC1", 26.7],
  ["O=C(N[C@@H](Cc1coc2ccccc12)B(O)O)[C@H]1CCCO1", 90.7]
]}

// data source = ChEMBL document CHEMBL5149996
